Just for reference, ChEMBL document CHEMBL1938388 is where these values come from.

Reported IC50 is given for each of the following molecules.
Test system: Jurkat
Test: Cytotoxicity against human Jurkat T cells assessed as decrease in cell viability after 24 hrs by flow cytometric analysis
Format: functional, cell-based
Please give a number only; it is taken to be in µM.

1. O=C1c2ccc3c4c(ccc(c24)C(=O)N1CCN=C=S)C(=O)N(CCN=C=S)C3=O	0.89
2. C[S+]([O-])CCCCN=C=S (centres undefined) [SULFORAPHANE]	15
3. CN(C)CCN1C(=O)c2ccc3c4c(ccc(c24)C1=O)C(=O)N(CCN=C=S)C3=O	1.91

We next turn to a different molecule, shown below.
For record O=C1c2ccc3c4c(ccc(c24)C(=O)N1CCCN=C=S)C(=O)N(CCCN=C=S)C3=O the listed IC50 is 0.43
